tested.system: ZBTB7A (Homo sapiens, UniProt O95365+Q96SW2)
Construct: HUDEP-2 cells engineered to express a HiBiT tag in either the WIZ (Widely interspaced zinc finger) or ZBTB7A
Sequence (O95365 whole entry): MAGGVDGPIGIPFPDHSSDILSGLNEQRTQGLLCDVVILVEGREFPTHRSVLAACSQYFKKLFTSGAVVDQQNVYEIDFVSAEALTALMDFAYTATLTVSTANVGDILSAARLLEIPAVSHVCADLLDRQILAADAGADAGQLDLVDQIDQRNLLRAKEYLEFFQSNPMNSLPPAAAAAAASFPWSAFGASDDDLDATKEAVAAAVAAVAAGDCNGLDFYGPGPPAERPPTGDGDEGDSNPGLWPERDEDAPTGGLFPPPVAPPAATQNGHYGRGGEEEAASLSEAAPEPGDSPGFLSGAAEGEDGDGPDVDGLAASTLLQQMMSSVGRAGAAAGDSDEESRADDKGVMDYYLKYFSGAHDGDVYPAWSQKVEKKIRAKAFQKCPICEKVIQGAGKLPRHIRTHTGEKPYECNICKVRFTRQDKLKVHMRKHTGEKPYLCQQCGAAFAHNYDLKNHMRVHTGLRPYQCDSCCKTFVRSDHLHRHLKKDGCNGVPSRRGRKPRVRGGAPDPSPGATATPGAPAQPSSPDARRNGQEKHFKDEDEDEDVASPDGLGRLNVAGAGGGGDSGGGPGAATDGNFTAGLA
Sequence (Q96SW2 whole entry): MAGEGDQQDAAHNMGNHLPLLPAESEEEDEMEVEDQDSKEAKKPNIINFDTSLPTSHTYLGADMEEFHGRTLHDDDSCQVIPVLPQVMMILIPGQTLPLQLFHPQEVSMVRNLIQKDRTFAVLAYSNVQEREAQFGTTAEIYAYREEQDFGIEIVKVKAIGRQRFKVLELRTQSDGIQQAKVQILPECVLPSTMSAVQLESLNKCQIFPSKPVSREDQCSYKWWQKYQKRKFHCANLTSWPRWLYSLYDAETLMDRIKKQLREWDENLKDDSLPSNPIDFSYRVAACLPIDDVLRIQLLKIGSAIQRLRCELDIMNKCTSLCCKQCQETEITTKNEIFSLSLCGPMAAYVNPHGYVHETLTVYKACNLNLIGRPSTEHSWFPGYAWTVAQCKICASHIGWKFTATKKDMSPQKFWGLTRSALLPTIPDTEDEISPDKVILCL
Sequence (Q16531 whole entry partner): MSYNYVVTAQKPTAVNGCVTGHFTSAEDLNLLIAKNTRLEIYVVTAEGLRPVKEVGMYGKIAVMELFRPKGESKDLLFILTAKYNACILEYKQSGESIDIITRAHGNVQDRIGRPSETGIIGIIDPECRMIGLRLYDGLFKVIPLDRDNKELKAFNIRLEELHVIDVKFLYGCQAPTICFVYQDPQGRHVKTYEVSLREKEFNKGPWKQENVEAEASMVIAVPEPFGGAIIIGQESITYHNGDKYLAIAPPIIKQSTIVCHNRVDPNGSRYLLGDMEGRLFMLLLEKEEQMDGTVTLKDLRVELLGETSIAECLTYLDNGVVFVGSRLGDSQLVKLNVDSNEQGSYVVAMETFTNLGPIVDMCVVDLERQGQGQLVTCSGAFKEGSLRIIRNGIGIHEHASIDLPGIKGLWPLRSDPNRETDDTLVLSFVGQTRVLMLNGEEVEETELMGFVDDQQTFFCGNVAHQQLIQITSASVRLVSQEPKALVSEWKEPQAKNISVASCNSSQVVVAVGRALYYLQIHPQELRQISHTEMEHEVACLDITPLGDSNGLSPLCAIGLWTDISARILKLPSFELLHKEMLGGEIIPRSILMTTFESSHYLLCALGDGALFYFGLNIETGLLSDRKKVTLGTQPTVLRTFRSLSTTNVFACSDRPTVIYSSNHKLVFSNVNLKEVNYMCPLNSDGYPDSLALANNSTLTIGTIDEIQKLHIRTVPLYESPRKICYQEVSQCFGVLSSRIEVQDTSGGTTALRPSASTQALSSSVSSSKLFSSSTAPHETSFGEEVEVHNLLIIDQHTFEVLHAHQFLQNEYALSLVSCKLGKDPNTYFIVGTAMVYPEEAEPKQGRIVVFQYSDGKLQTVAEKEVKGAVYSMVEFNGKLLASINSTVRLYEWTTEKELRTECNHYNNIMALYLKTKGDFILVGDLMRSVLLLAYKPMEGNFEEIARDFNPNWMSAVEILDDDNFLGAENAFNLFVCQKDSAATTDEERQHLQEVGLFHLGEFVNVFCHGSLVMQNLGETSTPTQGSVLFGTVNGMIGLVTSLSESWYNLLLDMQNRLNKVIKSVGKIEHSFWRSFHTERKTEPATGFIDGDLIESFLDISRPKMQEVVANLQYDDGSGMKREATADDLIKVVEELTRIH
assay.explanation: HUDEP-2 ZBTB7A HiBiT degradation assay
Format: cell-based
condition.label: HiBiT-tagged ZBTB7A degradation in HUDEP-2 cells, 24 hours of treatment; read-out: ZBTB7A EC50
Provide the recorded DC50 for the entries that follow.
Answers are plain numbers, in nM.

Sample records with DC50:
{"compound": "Cc1cc(-c2c(Nc3cccc4c3C(=O)N([C@H]3CCC(=O)NC3=O)C4=O)cc3c(c2F)[C@@H](C)OC(=O)N3C)c(F)cn1 [Compound 82]", "result": 19}
{"compound": "Cc1cc(-c2cc3c(cc2Nc2cccc4c2C(=O)N(C2CCC(=O)NC2=O)C4=O)N(C)C(=O)CO3)cc(C2CC2)n1 (stereo not drawn) [Compound 57]", "result": 54}
{"compound": "CC(=O)N1CCC(c2cc3c(cc2Nc2cccc4c2C(=O)N([C@H]2CCC(=O)NC2=O)C4=O)N(C)C(=O)[C@@H](C)O3)CC1 [Compound 32]", "result": 14}
{"compound": "COc1ccc(-c2cc3c(cc2Nc2cccc4c2C(=O)N([C@H]2CCC(=O)NC2=O)C4=O)N(C)C(=O)[C@@H](C)O3)cn1 [Compound 39]", "result": 16}
{"compound": "CO[C@H]1CC[C@@H](c2cc3c(cc2Nc2cccc4c2C(=O)N(C2CCC(=O)NC2=O)C4=O)N(C)C(=O)CC3)CC1 (stereo partly drawn) [Compound 92]", "result": 3}

Query string: Give the measured DC50 of COc1ncc(-c2cc3c(cc2Nc2cccc4c2C(=O)N(C2CCC(=O)NC2=O)C4=O)N(C)C(=O)CO3)cc1F (stereo not drawn) [Compound 51] .
Result string: 30

====

tested.system: ZBTB7A (Homo sapiens, UniProt O95365+Q96SW2)
Construct: HUDEP-2 cells engineered to express a HiBiT tag in either the WIZ (Widely interspaced zinc finger) or ZBTB7A
assay.explanation: HUDEP-2 ZBTB7A HiBiT degradation assay
Format: cell-based
condition.label: HiBiT-tagged ZBTB7A degradation in HUDEP-2 cells, 24 hours of treatment; read-out: ZBTB7A EC50
measurement.label: DC50 (nM)
One number for each entry, in nM.

{"molecule": "CCOc1nccc(-c2cc3c(cc2Nc2cccc4c2C(=O)N(C2CCC(=O)NC2=O)C4=O)N(C)C(=O)CO3)c1C (stereo not shown)", "units.label": "nM", "DC50": 53}
{"molecule": "Cc1cc(-c2c(Nc3cccc4c3C(=O)N(C3CCC(=O)NC3=O)C4=O)cc3c(c2F)OCC(=O)N3C)ccn1 (stereo not shown) [Compound 81]", "units.label": "nM", "DC50": 28}
{"molecule": "Cc1cncc(-c2cc3c(cc2Nc2cccc4c2C(=O)N([C@H]2CCC(=O)NC2=O)C4=O)N(C)C(=O)[C@H](C)O3)c1", "units.label": "nM", "DC50": 24}

Batch lookup, DC50 per entry.
1. Cc1cc(-c2cc3c(cc2Nc2cccc4c2C(=O)N([C@H]2CCC(=O)NC2=O)C4=O)N(C)[C@@H](C)CO3)ccn1
2. Cc1cc(-c2nc3c(cc2Nc2cccc4c2C(=O)N([C@H]2CCC(=O)NC2=O)C4=O)N(C)C(=O)CC3)ccn1
3. COc1nccc(-c2cc3c(cc2Nc2cccc4c2C(=O)N([C@H]2CCC(=O)NC2=O)C4=O)N(C)C(=O)[C@H](C)O3)c1F

Result string:
1. 26
2. 256
3. 8

====

tested.system: ZBTB7A (Homo sapiens, UniProt O95365+Q96SW2)
Construct: HUDEP-2 cells engineered to express a HiBiT tag in either the WIZ (Widely interspaced zinc finger) or ZBTB7A
assay.explanation: HUDEP-2 ZBTB7A HiBiT degradation assay
Type: cell-based
condition.label: HiBiT-tagged ZBTB7A degradation in HUDEP-2 cells, 24 hours of treatment; read-out: ZBTB7A EC50
measurement.label: DC50 (nM)
Give bare numbers, in nM.

Sample records with DC50:
{"molecule": "Cc1cc(-c2cc3c(cc2Nc2cccc4c2C(=O)N([C@H]2CCC(=O)NC2=O)C4=O)N(C)C(=O)[C@H](C)O3)cc(C)n1", "units.label": "nM", "DC50": 15}
{"molecule": "Cc1cc(-c2cc3c(cc2Nc2cccc4c2C(=O)N([C@H]2CCC(=O)NC2=O)C4=O)N(C)C(=O)[C@H](C)C3)ccn1", "units.label": "nM", "DC50": 16}
{"molecule": "CCOc1cc(-c2cc3c(cc2Nc2cccc4c2C(=O)N(C2CCC(=O)NC2=O)C4=O)N(C)C(=O)CO3)cc(C)n1 (stereo not drawn)", "units.label": "nM", "DC50": 73}

Batch lookup, DC50 per entry.
1. Cc1ccc(-c2cc3c(cc2Nc2cccc4c2C(=O)N([C@H]2CCC(=O)NC2=O)C4=O)N(C)C(=O)CO3)c(F)n1
2. Cc1cc(-c2cc3c(cc2Nc2cccc4c2C(=O)N([C@H]2CCC(=O)NC2=O)C4=O)N(C)C(=O)[C@@H](C)C3)ccn1
3. CCN1C(=O)COc2cc(-c3ccnc(C)c3)c(Nc3cccc4c3C(=O)N([C@H]3CCC(=O)NC3=O)C4=O)cc21

Result string:
1. 13
2. 48
3. 24

====

tested.system: ZBTB7A (Homo sapiens, UniProt O95365+Q96SW2)
Construct: HUDEP-2 cells engineered to express a HiBiT tag in either the WIZ (Widely interspaced zinc finger) or ZBTB7A
assay.explanation: HUDEP-2 ZBTB7A HiBiT degradation assay
Format: cell-based
condition.label: HiBiT-tagged ZBTB7A degradation in HUDEP-2 cells, 24 hours of treatment; read-out: ZBTB7A EC50
Protocol: WIZ Assay and ZBTB7A EC50 Assays. The HiBiT degradation assays for WIZ and ZBTB7A in HUDEP-2 cells were performed as described below. […] Prior to start of the assay, cell count and viability were measured by trypan blue exclusion using the Vi-cell XR cell viability analyzer. […]
Provide the recorded DC50 for the entries that follow.
One number for each entry, in nM.

Sample records with DC50:
{"compound": "Cc1cc(-c2c(Nc3cccc4c3C(=O)N(C3CCC(=O)NC3=O)C4=O)cc3c(c2F)OCC(=O)N3C)cc(C(F)F)n1 (centres unmarked) [Compound 77]", "DC50 (nM)": 102}
{"compound": "COc1cc(-c2cc3c(cc2Nc2cccc4c2C(=O)N([C@H]2CCC(=O)NC2=O)C4=O)N(C)C(=O)[C@@H](C)O3)ccn1", "DC50 (nM)": 24}
{"compound": "CNc1cc(-c2cc3c(cc2Nc2cccc4c2C(=O)N(C2CCC(=O)NC2=O)C4=O)N(C)C(=O)CO3)cc(C)n1 (centres unmarked)", "DC50 (nM)": 188}

Batch lookup, DC50 per entry.
1. COc1ccc(-c2cc3c(cc2Nc2cccc4c2C(=O)N([C@H]2CCC(=O)NC2=O)C4=O)N(C)C(=O)CO3)cn1
2. CC(=O)N1CCC(c2cc3c(cc2Nc2cccc4c2C(=O)N([C@H]2CCC(=O)NC2=O)C4=O)N(C)C(=O)OC3C)CC1 (some centres unmarked)
3. Cc1cc(-c2cc3c(cc2Nc2cccc4c2C(=O)N([C@H]2CCC(=O)NC2=O)C4=O)N(C)C(=O)OC3)ccn1
4. Cc1cc(-c2cc3c(cc2Nc2cccc4c2C(=O)N([C@H]2CCC(=O)NC2=O)C4=O)N(C)C(=O)[C@@H](C)O3)cc(C(F)F)n1

Result string:
13
75
17
71

====

tested.system: WIZ (Homo sapiens, UniProt O95785+Q96SW2)
Construct: HUDEP-2 cells engineered to express a HiBiT tag in either the WIZ (Widely interspaced zinc finger) or ZBTB7A
Sequence (O95785 whole entry, one chain of several): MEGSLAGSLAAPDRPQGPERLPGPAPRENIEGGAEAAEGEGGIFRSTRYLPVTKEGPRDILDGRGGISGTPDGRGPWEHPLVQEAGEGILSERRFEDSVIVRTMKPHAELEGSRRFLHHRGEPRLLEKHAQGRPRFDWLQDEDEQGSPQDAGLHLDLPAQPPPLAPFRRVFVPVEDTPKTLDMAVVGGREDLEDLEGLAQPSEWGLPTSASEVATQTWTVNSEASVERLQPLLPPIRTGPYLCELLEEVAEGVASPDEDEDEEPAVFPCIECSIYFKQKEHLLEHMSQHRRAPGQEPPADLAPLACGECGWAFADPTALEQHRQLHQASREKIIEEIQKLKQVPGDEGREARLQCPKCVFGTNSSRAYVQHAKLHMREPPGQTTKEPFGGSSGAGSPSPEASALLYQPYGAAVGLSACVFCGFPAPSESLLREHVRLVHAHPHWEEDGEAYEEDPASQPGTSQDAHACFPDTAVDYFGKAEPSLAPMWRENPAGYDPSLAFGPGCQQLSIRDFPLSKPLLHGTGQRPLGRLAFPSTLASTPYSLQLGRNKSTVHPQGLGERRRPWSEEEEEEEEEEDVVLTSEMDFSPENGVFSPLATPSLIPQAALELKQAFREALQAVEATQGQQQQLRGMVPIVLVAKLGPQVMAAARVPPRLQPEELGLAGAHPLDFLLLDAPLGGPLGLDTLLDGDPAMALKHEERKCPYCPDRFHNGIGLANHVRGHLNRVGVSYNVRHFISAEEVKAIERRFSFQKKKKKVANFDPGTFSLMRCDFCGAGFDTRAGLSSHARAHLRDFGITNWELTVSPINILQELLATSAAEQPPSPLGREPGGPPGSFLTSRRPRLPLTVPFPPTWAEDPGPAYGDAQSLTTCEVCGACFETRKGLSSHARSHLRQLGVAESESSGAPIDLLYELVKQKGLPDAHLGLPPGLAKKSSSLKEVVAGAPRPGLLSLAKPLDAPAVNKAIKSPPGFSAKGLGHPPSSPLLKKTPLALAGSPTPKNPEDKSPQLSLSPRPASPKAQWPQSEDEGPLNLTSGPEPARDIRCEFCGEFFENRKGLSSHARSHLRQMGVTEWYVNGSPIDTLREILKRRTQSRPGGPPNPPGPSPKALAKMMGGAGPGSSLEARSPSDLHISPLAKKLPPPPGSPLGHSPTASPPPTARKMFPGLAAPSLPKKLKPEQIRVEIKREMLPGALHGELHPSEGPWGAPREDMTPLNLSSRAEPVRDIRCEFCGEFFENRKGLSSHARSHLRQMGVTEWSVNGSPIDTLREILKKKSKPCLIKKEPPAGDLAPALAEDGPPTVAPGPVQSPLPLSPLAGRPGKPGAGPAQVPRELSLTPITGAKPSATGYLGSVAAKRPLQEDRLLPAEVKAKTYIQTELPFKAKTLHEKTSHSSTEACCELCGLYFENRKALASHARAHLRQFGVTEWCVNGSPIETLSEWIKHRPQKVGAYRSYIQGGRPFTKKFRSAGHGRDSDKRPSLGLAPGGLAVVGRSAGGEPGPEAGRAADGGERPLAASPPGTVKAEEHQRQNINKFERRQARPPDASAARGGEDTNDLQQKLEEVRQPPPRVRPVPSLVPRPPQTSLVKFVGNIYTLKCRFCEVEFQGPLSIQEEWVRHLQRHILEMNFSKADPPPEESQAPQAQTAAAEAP
assay.explanation: HUDEP-2 WIZ HiBiT degradation assay
Format: cell-based
condition.label: HiBiT-tagged WIZ degradation in HUDEP-2 cells, 24 hours of treatment; read-out: WIZ EC50
Provide the recorded DC50 for the entries that follow.
Give bare numbers, in nM.

Sample records with DC50:
{"molecule": "COc1ncc(-c2cc3c(cc2Nc2cccc4c2C(=O)N(C2CCC(=O)NC2=O)C4=O)N(C)C(=O)CO3)cc1F (stereo not shown)", "DC50 (nM)": 37}
{"molecule": "Cc1cc(-c2cc3c(cc2Nc2cccc4c2C(=O)N([C@H]2CCC(=O)NC2=O)C4=O)N(C)C(=O)O[C@@H]3C)ccn1", "DC50 (nM)": 17}
{"molecule": "Cc1ccc(-c2cc3c(cc2Nc2cccc4c2C(=O)N([C@H]2CCC(=O)NC2=O)C4=O)N(C)C(=O)CO3)c(F)n1", "DC50 (nM)": 7}
{"molecule": "Cc1cc(-c2cc3c(cc2Nc2cccc4c2C(=O)N([C@H]2CCC(=O)NC2=O)C4=O)N(C2CC2)C(=O)CO3)ccn1", "DC50 (nM)": 13}
{"molecule": "CC(=O)N1CCC(c2cc3c(cc2Nc2cccc4c2C(=O)N([C@H]2CCC(=O)NC2=O)C4=O)N(C)C(=O)OC3C)CC1 (stereo partly shown)", "DC50 (nM)": 37}
{"molecule": "Cc1cc(-c2c(Nc3cccc4c3C(=O)N([C@H]3CCC(=O)NC3=O)C4=O)cc3c(c2F)[C@@H](C)OC(=O)N3C)c(F)cn1", "DC50 (nM)": 54}
{"molecule": "Cc1cc(-c2cc3c(cc2Nc2cccc4c2C(=O)N(C2CCC(=O)NC2=O)C4=O)N(C)C(=O)CC3C)ccn1 (stereo not shown)", "DC50 (nM)": 11}
{"molecule": "CN(C)c1cc(-c2cc3c(cc2Nc2cccc4c2C(=O)N(C2CCC(=O)NC2=O)C4=O)N(C)C(=O)CO3)ccn1 (stereo not shown)", "DC50 (nM)": 7}
{"molecule": "CC(=O)N1CCCC(c2cc3c(cc2Nc2cccc4c2C(=O)N([C@H]2CCC(=O)NC2=O)C4=O)N(C)C(=O)CO3)C1 (stereo partly shown)", "DC50 (nM)": 16}
{"molecule": "CC(=O)N1CCC(c2cc3c(cc2Nc2cccc4c2C(=O)N([C@H]2CCC(=O)NC2=O)C4=O)N(C)C(=O)[C@@H](C)O3)CC1", "DC50 (nM)": 5}

Batch lookup, DC50 per entry.
1. Cc1cc(-c2cc3c(cc2Nc2cccc4c2C(=O)N([C@H]2CCC(=O)NC2=O)C4=O)N(C)C(=O)[C@@H](C)O3)c(F)cn1
2. Cc1cc(-c2cc3c(cc2Nc2cccc4c2C(=O)N([C@H]2CCC(=O)NC2=O)C4=O)N(C)[C@H](C)CO3)ccn1
3. Cc1cc(-c2nc3c(cc2Nc2cccc4c2C(=O)N([C@H]2CCC(=O)NC2=O)C4=O)N(C)C(=O)CC3)ccn1

Result string:
6
17
89
